biological target: Neuronal acetylcholine receptor; alpha4/beta2 (Rattus norvegicus, UniProt P09483+P12390); test: Binding affinity towards alpha4-beta2 nicotinic receptor was determined in rat brain membrane using [3H]cytisine as radioligand
Sequence (P09483 whole entry): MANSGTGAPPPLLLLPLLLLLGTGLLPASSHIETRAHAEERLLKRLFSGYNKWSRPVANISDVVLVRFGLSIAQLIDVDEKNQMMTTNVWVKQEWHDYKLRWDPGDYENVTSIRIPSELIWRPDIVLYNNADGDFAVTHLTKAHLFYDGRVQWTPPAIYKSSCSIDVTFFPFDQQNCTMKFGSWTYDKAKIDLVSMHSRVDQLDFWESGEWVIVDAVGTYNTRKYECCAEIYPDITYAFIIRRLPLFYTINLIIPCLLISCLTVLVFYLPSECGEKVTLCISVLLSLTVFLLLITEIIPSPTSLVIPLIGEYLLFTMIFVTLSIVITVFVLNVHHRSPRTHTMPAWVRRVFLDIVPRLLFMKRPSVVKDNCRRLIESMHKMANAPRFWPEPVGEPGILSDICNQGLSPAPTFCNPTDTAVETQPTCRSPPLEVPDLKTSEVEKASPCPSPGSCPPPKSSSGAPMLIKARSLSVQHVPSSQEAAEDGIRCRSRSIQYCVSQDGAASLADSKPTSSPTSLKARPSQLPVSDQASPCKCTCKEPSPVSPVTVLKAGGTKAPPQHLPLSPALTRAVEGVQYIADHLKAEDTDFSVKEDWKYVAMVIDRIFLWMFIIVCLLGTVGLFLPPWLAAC
Sequence (P12390 whole entry): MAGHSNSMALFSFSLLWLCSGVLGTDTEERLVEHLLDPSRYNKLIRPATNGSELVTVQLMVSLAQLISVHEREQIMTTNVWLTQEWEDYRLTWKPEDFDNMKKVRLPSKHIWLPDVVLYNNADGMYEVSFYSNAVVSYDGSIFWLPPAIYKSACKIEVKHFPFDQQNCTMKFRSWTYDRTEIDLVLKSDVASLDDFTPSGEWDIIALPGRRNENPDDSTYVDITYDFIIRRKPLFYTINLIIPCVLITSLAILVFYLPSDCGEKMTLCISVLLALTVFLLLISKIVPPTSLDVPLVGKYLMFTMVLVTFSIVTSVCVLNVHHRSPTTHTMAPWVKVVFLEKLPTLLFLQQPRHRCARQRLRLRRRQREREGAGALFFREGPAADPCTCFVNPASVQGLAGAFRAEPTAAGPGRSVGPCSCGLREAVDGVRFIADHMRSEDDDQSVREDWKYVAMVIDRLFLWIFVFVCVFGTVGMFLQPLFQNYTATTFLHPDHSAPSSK
reported_endpoint: pKi
Conceptually, pKi converts a concentration in mol/L into minus its log10.

[
  {
    "molecule": "Clc1ncc(C2CC3CCC2N3)cn1 (stereo not drawn)",
    "readout_number": 9.51
  },
  {
    "molecule": "COC(=O)Nc1ccc(C2CC3CCC2N3)cn1 (stereo not drawn)",
    "readout_number": 5.09
  }
]

Now for the molecule whose pKi we want.
// molecule O=C(CCl)Nc1ccc(C2CC3CCC2N3)cn1 (stereo not drawn) , assay Neuronal acetylcholine receptor; alpha4/beta2 (Rattus norvegicus, UniProt P09483+P12390), pKi value: 7.79
